Numbers sourced from PubChem BioAssay.

molecular target: Luciferin 4-monooxygenase (Photinus pyralis) (UniProt P08659); assay: firefly luciferase enzyme inhibitors, primary screen, biochemical, luminescence, purified enzyme, 2006 set (AID 1141); conditions: SteadyGlo luminescence, 30 min, higher = more signal, called active from +8 up or from −8 down;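 further: cell-free assay with purified firefly luciferase at 100 ng per well in PBS; test concentration not given here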
Sequence (P08659 whole entry, looked up): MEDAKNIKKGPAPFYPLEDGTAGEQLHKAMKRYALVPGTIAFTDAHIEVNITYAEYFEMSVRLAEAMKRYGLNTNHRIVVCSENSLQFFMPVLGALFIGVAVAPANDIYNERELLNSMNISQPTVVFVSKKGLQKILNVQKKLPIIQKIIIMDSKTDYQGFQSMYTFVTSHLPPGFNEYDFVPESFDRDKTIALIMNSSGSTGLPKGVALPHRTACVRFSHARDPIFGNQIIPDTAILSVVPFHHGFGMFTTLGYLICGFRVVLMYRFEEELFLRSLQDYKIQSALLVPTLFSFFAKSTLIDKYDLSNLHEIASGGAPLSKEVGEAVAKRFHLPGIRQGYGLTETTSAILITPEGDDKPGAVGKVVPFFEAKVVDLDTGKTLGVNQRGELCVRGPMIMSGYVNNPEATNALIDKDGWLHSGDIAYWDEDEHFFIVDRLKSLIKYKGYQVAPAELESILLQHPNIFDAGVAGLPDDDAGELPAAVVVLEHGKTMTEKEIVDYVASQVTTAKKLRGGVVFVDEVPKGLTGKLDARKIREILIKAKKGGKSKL
Please note: 1 (yes) applies when z-score is 0.4 or greater, and 0 (no) applies otherwise.

query: # bool: z-score of N#Cc1ccc(NN2C(C(O)c3cccs3)C=CC3C(=O)N(c4ccccc4)C(=O)C32)cc1 (configuration not stated) >= 0.4
result: 0 (no)

query: I'd appreciate it if you could say whether Cc1ccc([C@H]2[C@H](C(=O)O)[C@H](Sc3ccccc3)[C@@H](C(C)C)N2S(=O)(=O)c2ccc(C)cc2)cc1 has z-score at least equal to 0.4.
result: 1 (yes)

query: Identify whether the reported z-score of the following compound is 0.4 or greater: COC(=O)C[C@@H]1C[C@H](C)[C@]2(O1)C(=O)N(Cc1ccccc1)c1ccc(NC(C)=O)cc12
result: 0 (no)

query: Is reported z-score greater than or equal to 0.4 here: COC(=O)[C@@]1(Cc2ccccc2)[C@H]2c3cc(C(=O)N(C)C)n(Cc4c(-c5ccccc5)noc4C)c3C[C@H]2CN1C(=O)c1ccccc1
result: 1 (yes)

query: Check the entry COCCOC(=O)N1C(=O)[C@@]2(c3cc(C#CCNC(N)=O)ccc31)[C@H](c1ccccc1OCCO)N1[C@H](c3ccccc3)[C@H](c3ccccc3)OC(=O)[C@H]1[C@@H]2C(N)=O : does z-score equal or exceed 0.4?
result: 0 (no)

query: Decide: is the reported value of z-score for COc1ccc(C(O)C2C=CC3C(=O)N(c4ccccc4)C(=O)C3N2Nc2ccc([N+](=O)[O-])cc2)cc1OCc1ccccc1 (configuration not stated) equal to or greater than 0.4?
result: 1 (yes)

query: Is z-score for O=c1cccc(C=Cc2ccccc2)o1 at or above 0.4?
result: 1 (yes)

====

target: E3 ubiquitin-protein ligase XIAP (Homo sapiens) (UniProt P98170); experiment: XIAP binders, primary screen, biophysical, small-molecule microarray, fluorescence 635 nm (AID 1181); conditions: small-molecule microarray binding, higher = more signal;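 further: score merges 667 nm emission and signal to noise over triplicate slides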
Sequence (P98170 whole entry, looked up): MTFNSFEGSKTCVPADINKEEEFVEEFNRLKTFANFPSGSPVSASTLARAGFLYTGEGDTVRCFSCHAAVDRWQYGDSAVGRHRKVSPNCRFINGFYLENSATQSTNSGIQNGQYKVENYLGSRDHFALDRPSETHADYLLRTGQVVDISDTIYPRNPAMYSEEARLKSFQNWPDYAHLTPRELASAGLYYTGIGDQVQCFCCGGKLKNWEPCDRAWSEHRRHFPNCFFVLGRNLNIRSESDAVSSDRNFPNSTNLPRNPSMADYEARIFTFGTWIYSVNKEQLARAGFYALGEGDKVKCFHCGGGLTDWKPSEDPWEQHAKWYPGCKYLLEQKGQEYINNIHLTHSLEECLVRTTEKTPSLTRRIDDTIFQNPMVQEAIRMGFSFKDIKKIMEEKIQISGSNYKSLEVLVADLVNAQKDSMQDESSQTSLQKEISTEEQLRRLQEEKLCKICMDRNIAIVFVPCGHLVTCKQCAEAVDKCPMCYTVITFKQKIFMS
Answer no if composite z-score is under 0.08, and yes if it is 0.08 or more.

query: Item CCOC(=O)C1=CCC(c2ccc(C#N)cc2)N(S(=O)(=O)c2ccc(C)cc2)C1 (configuration not stated) with composite z-score of 0.08 or above?
result: no

query: Determine whether measured composite z-score meets or exceeds 0.08 for COCCOC(=O)N1C(=O)[C@@]2(c3cc(C#CCCO)ccc31)[C@H](C(=O)NC[C@H](O)c1ccccc1)[C@H]1C(=O)O[C@H](c3ccccc3)[C@H](c3ccccc3)N1[C@@H]2c1ccc(O)cc1
result: no

query: # bool: composite z-score of NC(=O)NCC#Cc1ccc2c(c1)[C@]1(C(=O)N2)[C@H](C(=O)NC[C@H](O)c2ccccc2)[C@H]2C(=O)O[C@H](c3ccccc3)[C@H](c3ccccc3)N2[C@@H]1c1ccc(O)cc1 >= 0.08
result: yes

query: Assess whether reported composite z-score for COCCOC(=O)N1C(=O)[C@@]2(c3cc(C#CCC(C(=O)OC)C(=O)OC)ccc31)[C@H](C(=O)N1CCN(c3ncccn3)CC1)[C@H]1C(=O)O[C@H](c3ccccc3)[C@H](c3ccccc3)N1[C@@H]2c1ccc(OCCO)cc1 sits at 0.08 or higher.
result: yes

query: Kindly determine if composite z-score recorded for COC(=O)[C@@]1(Cc2ccc(F)cc2)[C@H]2c3cc(C(=O)N(C)C)n(CCc4ccccn4)c3C[C@H]2CN1C(=O)c1ccccc1 is above or exactly 0.08.
result: yes

query: Kindly determine if composite z-score recorded for COC(=O)[C@@]1(Cc2ccccc2N=[N+]=[N-])COC(c2ccc(OCCCO)cc2)=N1 is above or exactly 0.08.
result: no

====

experiment: small-molecule microarray binders of probe aXIP, primary screen, biochemical, NeuroSMM set, 635/667 nm fluorescence (AID 1119); settings: higher = more signal, called active from +8 up or from −8 down;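 further: probe is the protein aXip251-270 applied at 1 µg/mL to compound-printed slides; binding of probe to printed compounds measured as 667 nm fluorescence plus signal to noise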
Record form. Attribute: composite Z-score. Fill in for each entry.
Enter a number only.

Value of composite Z-score reported for the compound O=C1OCCC/C=C\[C@H]2OC34C=CCN(Cn5nnc6ccccc65)C(=O)[C@H]3N(CCCCCO)C(=O)[C@@H]4C12 (stereo partly drawn) is -0.263

composite Z-score measured on C=CC(COC(C)=O)NS(=O)(=O)c1ccc(Br)cc1 (stereo not drawn) = 0.0518

composite Z-score in this record for COCCOC(=O)N1C(=O)[C@@]2(c3cc(C#CCC(C(=O)OC)C(=O)OC)ccc31)[C@H](C(=O)N1CCN(c3ncccn3)CC1)[C@H]1C(=O)O[C@H](c3ccccc3)[C@H](c3ccccc3)N1[C@@H]2c1ccc(OCCO)cc1 : 1.44

So for CCOC(=O)C1=CCC(c2ccc(C#N)cc2)N(S(=O)(=O)c2ccc(C)cc2)C1 (stereo not drawn) , the logged composite Z-score turned out to be 0.356

Query COc1cc2c(cc1OC)CN(C(=O)[C@@H]1[C@H]3C(=O)O[C@H](c4ccccc4)[C@H](c4ccccc4)N3[C@H](c3ccccc3OCCO)[C@@]13C(=O)Nc1ccc(C#CCNC(N)=O)cc13)CC2 yields composite Z-score of 0.545

Item: COCCOC(=O)N1C(=O)[C@@]2(c3cc(C#CC4(O)CCCCCC4)ccc31)[C@H](C(=O)N1CCCCCCC1)[C@H]1C(=O)O[C@H](c3ccccc3)[C@H](c3ccccc3)N1[C@@H]2c1ccccc1OCCO | composite Z-score: 0.176

The compound listed as O=C1N(CCS(=O)(=O)c2ccccc2)Cc2ccccc2[C@H]2OC(c3ccc(OCCCO)cc3)=N[C@@]12CCS(=O)(=O)c1ccccc1 shows composite Z-score equal to 1.81

Lab note: C=C(COC)C(=O)CC[C@@H](OC(=O)c1cccnc1)c1ccc(CO)o1 gave composite Z-score of 0.509

// COc1ccc(CCNC(=O)[C@@H]2c3ccccc3C(=O)N(Cc3ccc(OC(F)(F)F)cc3)[C@H]2c2ccc(CO)cc2)cc1 : composite Z-score value = -0.313

Lookup result for CC(C)(C)OC(=O)CC[C@@]1(C(=O)O)N=C(c2ccc(OCCCO)cc2)O[C@@H]1c1ccccc1N=[N+]=[N-] ; measured composite Z-score: 0.0589

Noted for COC(=O)c1ccc(C(O)C2C=CC3C(=O)N(c4ccccc4)C(=O)C3N2Nc2ccc(C#N)cc2)o1 (stereo not drawn) : its composite Z-score reads -0.336

Input COc1ccc([Si](C)(C)[C@H]2[C@H](CC(=O)N(CCO)Cc3ccccc3)O[C@@]3(C(=O)N(Cc4cccc(N5CCC5=O)c4)c4ccccc43)[C@@H]2C)cc1 . Output composite Z-score: 4.59

# compound [N-]=[N+]=NCc1ccccc1C[C@@]1(C(=O)NCC(O)CO)N=C(c2ccc(OCCCO)cc2)O[C@@H]1c1ccccc1CN=[N+]=[N-] (stereo partly drawn) ; its composite Z-score = -0.082

compound C=CCOC(=O)[C@@H]1[C@H]2C(=O)O[C@H](c3ccccc3)[C@H](c3ccccc3)N2[C@H](c2ccc(OCCOC(=O)[C@@H]3C[C@@H]4C(=O)N[C@@H](Cc5ccccc5)C(=O)N4[C@@H]3c3cccc(OCCO)c3)cc2)[C@@]12C(=O)Nc1ccc(I)cc12 , composite Z-score observed: -0.292

Per the records, this compound ( COC(=O)c1ccc(OC)c(/C=C\CC(OC(C)=O)c2ccccc2)c1 (stereo not drawn) ) has composite Z-score equal to -0.192

composite Z-score for O=C1O[C@H](c2ccccc2)[C@H](c2ccccc2)N2[C@H]1[C@@H](C(=O)N1CCN(c3ncccn3)CC1)[C@]1(C(=O)Nc3ccccc31)[C@H]2c1ccc(OCCO)cc1 is -0.317

The value of composite Z-score measured for the compound CCCCCN1CC=CC23O[C@@H]4C=CCOC(=O)[C@@H]4[C@H]2C(=O)N(CCCO)[C@@H]3C1=O (stereo partly drawn) turned out to be 1.01

Lab note: COCC1=C2[C@@H](CCc3ccccc3)OB(O)C[C@@H]2[C@@H]2C(=O)N(Cc3ccccc3)C(=O)[C@@H]2C1 gave composite Z-score of -0.524

Just so you know, measured composite Z-score for CS(=O)(=O)CCOC(=O)C1=CC(CCCO)=CC(c2cccs2)N(Cc2cc3c(cc2Br)OCO3)C=C1C(=O)OCCS(C)(=O)=O (stereo not drawn) came out at 1.05

// field: composite Z-score; key: C=C(COC)C(=O)CC[C@H](OC(C)=O)c1cccc(OCCO)c1 ; value = 0.157

Lab book: composite Z-score of O=C1OCCC=C[C@H]2OC34C=CCN(c5ccc6ccccc6c5)C(=O)[C@H]3N(CCCCCO)C(=O)[C@@H]4C12 (stereo partly drawn) noted as 1.1

GET /value?item= COc1cc2c(cc1O)C(C)N(Cc1cccc(OC(F)(F)F)c1)CC2 (stereo not drawn) &field=composite Z-score returns 0.414

CN(C)CCCNC(=O)[C@@]1(Cc2ccccc2I)c2ccccc2C(=O)N(Cc2ccccc2C(F)(F)F)[C@H]1c1ccc(CO)cc1 yielded composite Z-score of 0.179

composite Z-score in this record for Cc1ccc(S[C@]2(C(=O)NCCN3CCOCC3)CC(=O)N(Cc3cc(C(F)(F)F)cc(C(F)(F)F)c3)[C@@H]2c2ccc(CO)cc2I)cc1 : -1.18

Quick note, composite Z-score for CCCCCN1CC=CC23O[C@@H]4/C=C\CCCOC(=O)C4[C@H]2C(=O)N(CCCCCCO)[C@@H]3C1=O (stereo partly drawn) landed at -0.328

Record summary for COC(=O)c1ccc(C23CC2(C(NP(=O)(c2ccccc2)c2ccccc2)c2ccccc2)C3)cc1 (stereo not drawn) : reported composite Z-score = 0.117

Kindly note the recorded composite Z-score for CN(C)C(=O)[C@@]1(CCC(=O)OC(C)(C)C)N=C(c2ccc(OCCCO)cc2)O[C@H]1c1ccccc1 , which is 0.58

Sample COc1ccccc1CN1C(=O)c2ccccc2[C@@H](C(=O)NCCN2CCOCC2)[C@@H]1c1ccc(CO)cc1 ; composite Z-score observed: -0.275
